assay: Stability in human plasma assessed as intact peptide measured after 2 hr at 37 degC by RP-HPLC analysis; assay type: ADME, cell-free; settings: read-out: Stability
Residues, ends and D or L forms follow the SMILES beside them.
Measurement Name: remaining at 2 h (%)
// return numeric value only (unit: %, not printed)

Sample answers from the record:
Molecule	remaining at 2 h (%)
CC(C)C[C@H](NC(=O)[C@@H]1CCCNC(=N)NC(=O)NCCCCNC(=O)CCC(=O)N[C@@H](CCCNC(=N)N)C(=O)N[C@@H](Cc2ccc(O)cc2)C(=O)N1)C(=O)N[C@@H](CCCNC(=N)N)C(=O)N[C@@H](Cc1ccc(O)cc1)C(N)=O	52
CC(C)C[C@H](NC(=O)[C@@H]1CCCNC(=N)NC(=O)NCCCCNC(=O)CCC(=O)N[C@@H](CCCNC(=N)N)C(=O)N[C@@H](Cc2c[nH]c3ccccc23)C(=O)N1)C(=O)N[C@@H](CCCNC(=N)N)C(=O)N[C@@H](Cc1ccc(O)cc1)C(N)=O	57

q: Please report the recorded remaining at 2 h for CC(=O)N[C@@H](CCCNC(=N)N)C(=O)N[C@@H](Cc1ccc(O)cc1)C(=O)N[C@@H](CCCN/C(N)=N/C(=O)NCCCCN)C(=O)N[C@@H](CC(C)C)C(=O)N[C@@H](CCCNC(=N)N)C(=O)N[C@@H](Cc1ccc(O)cc1)C(N)=O (HELM PEPTIDE1{[ac].R.Y.[NCCCCNC(=O)/N=C(\N)NCCC[C@H](N[*:1])C(=O)[*:2]].L.R.Y.[am]}$$$$V2.0) .
a: 38

* * *

assay: Stability in human plasma assessed as intact peptide measured after 30 mins at 37 degC by RP-HPLC analysis; format: ADME, cell-free; details: read-out: Stability
Each record here notes measured remaining at 0.5 h.
// return numeric value only (unit: %, not printed)

Cpd Smiles	Unit Spec	Value
CC(C)C[C@H](NC(=O)[C@H](CCCNC(=N)NC(=O)NCCCCN)NC(=O)[C@H](Cc1c[nH]c2ccccc12)NC(=O)[C@H](CCCNC(=N)N)NC(=O)CCC(=O)O)C(=O)N[C@@H](CCCNC(=N)N)C(=O)N[C@@H](Cc1ccc(O)cc1)C(N)=O	%	94

Next:
q: Please report the recorded remaining at 0.5 h for CC(C)C[C@H](NC(=O)[C@@H]1CCCNC(=N)NC(=O)NCCCCNC(=O)CCC(=O)N[C@@H](CCCNC(=N)N)C(=O)N[C@@H](Cc2c[nH]c3ccccc23)C(=O)N1)C(=O)N[C@@H](CCCNC(=N)N)C(=O)N[C@@H](Cc1ccc(O)cc1)C(N)=O .
a: 94

* * *

target: UniProt:P50391; test: Agonist activity at human neuropeptide Y Y4 receptor expressed in HEK293T-ARRB1 cells assessed as stimulation of beta-arrestin 1 recruitment by multimode plate reader; type: functional, cell-based; settings: read-out: EC50
Sequence (P50391 whole entry): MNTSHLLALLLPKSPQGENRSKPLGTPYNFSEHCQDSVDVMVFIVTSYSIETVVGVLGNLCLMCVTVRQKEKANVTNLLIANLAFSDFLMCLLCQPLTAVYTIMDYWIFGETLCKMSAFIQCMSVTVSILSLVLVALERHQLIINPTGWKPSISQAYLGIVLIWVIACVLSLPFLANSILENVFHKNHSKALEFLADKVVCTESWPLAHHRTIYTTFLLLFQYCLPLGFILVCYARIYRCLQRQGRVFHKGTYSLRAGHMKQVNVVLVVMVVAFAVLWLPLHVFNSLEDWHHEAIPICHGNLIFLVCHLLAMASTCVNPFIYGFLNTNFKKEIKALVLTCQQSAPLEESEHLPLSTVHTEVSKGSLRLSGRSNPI
Residues, ends and D or L forms follow the SMILES beside them.
Measurement Name: EC50
Kindly format the answer as number then unit.

Compound	EC50
N=C(N)NCCC[C@@H]1NC(=O)CCC(=O)NCCCCNC(=O)NC(=N)NCCC[C@@H](C(=O)N[C@@H](Cc2c[nH]c3ccccc23)C(=O)N[C@@H](CCCNC(=N)N)C(=O)N[C@@H](Cc2ccc(O)cc2)C(N)=O)NC(=O)[C@H](Cc2ccc(O)cc2)NC1=O (HELM PEPTIDE1{R.Y.[N=C(NCCC[C@H](N[*:1])C(=O)[*:2])N[*:3]].W.R.Y.[am]}|CHEM1{[O=C(CCC(=O)[*:1])NCCCCNC(=O)[*:2]]}$PEPTIDE1,CHEM1,1:R1-1:R1|PEPTIDE1,CHEM1,3:R3-1:R2$$$V2.0)	130 nM
CC(C)C[C@H](NC(=O)[C@@H]1CCCNC(=N)NC(=O)NCCCCNC(=O)CCC(=O)N[C@@H](CCCNC(=N)N)C(=O)N[C@@H](Cc2c[nH]c3ccccc23)C(=O)N1)C(=O)N[C@@H](CCCNC(=N)N)C(=O)N[C@@H](Cc1ccc(O)cc1)C(N)=O	1 nM

Next:
q: Please report the recorded EC50 for CC(C)C[C@H](NC(=O)[C@H](CCCNC(=N)N)NC(=O)[C@@H]1CCC(=O)N[C@@H](CCCNC(=N)N)C(=O)NCC(=O)N[C@@H](Cc2ccc(O)cc2)C(=O)N1)C(=O)N[C@@H](CCCNC(=N)N)C(=O)N[C@@H](Cc1ccc(O)cc1)C(N)=O (HELM PEPTIDE1{R.G.Y.E.R.L.R.Y.[am]}$PEPTIDE1,PEPTIDE1,1:R1-4:R3$$$V2.0) .
a: 290 nM
